Where do these numbers come from? They come from patent US20130259830A1.

# system-tested: CRTH2 (Homo sapiens)
# Construct: endogenous in cells; host or cells: eosinophils in human whole blood
# assay-comment: DPBS CD11b antagonist assay (CD11b expression in eosinophils challenged with 15R-Methyl-PGD2)
# Format: cell-based
# test-context: polymorphonuclear cells in PBS with CaCl2/MgCl2; agonist 15R-Methyl-PGD2 10 nM; eosinophils gated by flow cytometry
measurement-kind: IC50

# count of solved cases: 4
Cc1c(Cc2ccccc2N(C)S(=O)(=O)N2CCCC2)c2c(n1CC(=O)O)CC(C)(C)CC2=O: 5 to 20 nM
Cc1c(Cc2ccccc2S(=O)(=O)N2CCCC2)c2c(n1CC(=O)O)CC(C)(C)C/C2=N\OC(C)(C)C: 1 to 5 nM
Cc1c(Cc2cccnc2S(=O)(=O)c2ccc(C(F)(F)F)cc2)c2c(n1CC(=O)O)CC(C)(C)CC2=O: 100 to 500 nM
Cc1c(Cc2cccnc2S(=O)(=O)c2ccccc2C(F)(F)F)c2c(n1CC(=O)O)CC(C)(C)CC2=O: < 1 nM

# ---- query compound ----
Prompt: Return reported IC50; argument: `CCOC(=O)Cn1c(C)c(Cc2cccnc2S(=O)(=O)c2ccc(C(F)(F)F)cc2)c2c1CC(C)(C)CC2=O`
Completion: 1 to 5 nM

---

# system-tested: CRTH2 (Homo sapiens, UniProt Q9Y5Y4)
# Construct: endogenous in cells; host or cells: eosinophils in human whole blood
# Sequence (Q9Y5Y4 whole entry): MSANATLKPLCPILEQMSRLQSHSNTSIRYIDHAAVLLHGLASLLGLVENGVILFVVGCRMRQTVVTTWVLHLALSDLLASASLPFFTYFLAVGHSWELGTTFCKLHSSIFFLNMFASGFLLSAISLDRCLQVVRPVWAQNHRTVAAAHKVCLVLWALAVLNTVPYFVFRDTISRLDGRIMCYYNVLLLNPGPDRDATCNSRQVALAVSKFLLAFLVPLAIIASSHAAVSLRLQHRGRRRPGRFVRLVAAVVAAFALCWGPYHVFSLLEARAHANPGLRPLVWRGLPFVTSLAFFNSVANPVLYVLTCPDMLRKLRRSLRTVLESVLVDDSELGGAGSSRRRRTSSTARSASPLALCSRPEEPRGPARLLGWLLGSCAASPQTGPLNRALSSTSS
# assay-comment: Human whole blood CD11b antagonist assay (CD11b expression in eosinophils challenged with 15-R-methyl-PGD2)
# Assay type: cell-based
# test-context: 37° C. 10 minutes preincubation, agonist 15R-Methyl-PGD2 10 nM, eosinophils gated by flow cytometry
measurement-kind: IC50

Sample answers from the record:
CCN(c1ccccc1Cc1c2c(n(CC(=O)O)c1C)CC(C)(C)CC2=O)S(=O)(=O)c1ccc(C)cc1: 500 to 3000 nM
Cc1c(Cc2ccccc2NS(=O)(=O)c2ccccc2)c2c(n1CC(=O)O)CC(C)(C)CC2=O: 5 to 20 nM
Cc1c(Cc2ccc(S(=O)(=O)c3ccccc3)s2)c2c(n1CC(=O)O)CC(C)(C)CC2=O: > 3000 nM
Cc1c(Cc2cccnc2S(C)(=O)=O)c2c(n1CC(=O)O)CC(C)(C)CC2=O: 500 to 3000 nM

Record IC50 for all entries; do not skip any.
1. Cc1c(Cc2ccccc2NS(=O)(=O)c2ccc(OCc3ccccc3)cc2)c2c(n1CC(=O)O)CC(C)(C)CC2=O
2. Cc1c(Cc2cccnc2S(=O)(=O)c2ccc(F)cc2F)c2c(n1CC(=O)O)CC(C)(C)CC2=O
3. CCOC(=O)Cn1c(C)c(Cc2cccnc2S(=O)(=O)c2ccc(F)cc2F)c2c1CC(C)(C)CC2=O
4. Cc1c(Cc2ccccc2NS(=O)(=O)N2CCOCC2)c2c(n1CC(=O)O)CC(C)(C)CC2=O

Completion:
1: 5 to 20 nM; 2: 20 to 100 nM; 3: 500 to 3000 nM; 4: 20 to 100 nM

State the recorded IC50 for every item in the following list.
1. COc1ccc(S(=O)(=O)c2ncccc2Cc2c3c(n(CC(=O)O)c2C)CC(C)(C)CC3=O)cc1F
2. Cc1c(Cc2cccnc2S(=O)(=O)c2ccc(Cl)cc2)c2c(n1CC(=O)O)CC(C)(C)CC2=O
3. Cc1c(Cc2ccccc2NS(=O)(=O)c2ccc(O)cc2)c2c(n1CC(=O)O)CC(C)(C)CC2=O
4. Cc1c(Cc2cccc(N(C)S(=O)(=O)N3CCCC3)c2)c2c(n1CC(=O)O)CC(C)(C)CC2=O
5. CCOC(=O)Cn1c(C)c(Cc2cccnc2S(=O)(=O)c2ccc(F)cc2)c2c1CC(C)(C)CC2=O
6. Cc1c(Cc2ccccc2NS(=O)(=O)c2ccc(F)cc2F)c2c(n1CC(=O)O)CC(C)(C)CC2=O
7. Cc1ccc(S(=O)(=O)N(C)c2ccccc2Cc2c3c(n(CC(=O)O)c2C)CC(C)(C)CC3=O)cc1
8. Cc1c(Cc2ccccc2N(C)S(=O)(=O)c2ccccc2)c2c(n1CC(=O)O)CC(C)(C)CC2=O

Completion:
1. 20 to 100 nM
2. 5 to 20 nM
3. 1 to 5 nM
4. > 3000 nM
5. 500 to 3000 nM
6. 20 to 100 nM
7. 100 to 500 nM
8. 20 to 100 nM

Batch: IC50 for all items listed.
1. Cc1c(Cc2cc(OCC(F)(F)F)ccc2NS(=O)(=O)c2ccccc2)c2c(n1CC(=O)O)CC(C)(C)CC2=O
2. COc1ccc(S(=O)(=O)c2ncccc2Cc2c3c(n(CC(=O)O)c2C)CC(C)(C)CC3=O)cc1
3. Cc1c(Sc2ccccc2N(C)S(=O)(=O)c2ccccc2)c2c(n1CC(=O)O)CC(C)(C)CC2
4. CCOC(=O)Cn1c(C)c(Cc2cccnc2S(=O)(=O)c2ccc(C)cc2)c2c1CC(C)(C)CC2=O
5. Cc1c(Cc2cccnc2S(=O)(=O)c2ccccc2)c2c(n1CC(=O)O)CC(C)(C)CC2=O

Completion:
1. 20 to 100 nM
2. 20 to 100 nM
3. 500 to 3000 nM
4. 500 to 3000 nM
5. 5 to 20 nM
